# credit: PubChem BioAssay (NCI)

Assay: NCI Yeast Anticancer Drug Screen. Data for the wt1 strain (AID 149);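 also: 0% = growth of vehicle-treated wt1 cultures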
Conditions: S. cerevisiae wt1 strain (SPY 50644) growth inhibition; at 33.0 µM; hits give high values
This is part of a sample that, as a whole, favours compounds with a hit. Of some 79,000 tested, about 15% had one in any assay.
PARAMETER MEASURED: growth inhibition (%)

{"MOLECULE": "Cc1cc(N(CCOS(C)(=O)=O)CCOS(C)(=O)=O)ccc1C=O", "OBS VALUE": 37}
{"MOLECULE": "CCCCCCCCCC/C=C\\CC(=O)O", "OBS VALUE": 2}
{"MOLECULE": "c1cc2ccc3cc4ncccc4c4ccc(c1)c2c34", "OBS VALUE": 54}
{"MOLECULE": "O=c1[nH]c(=O)n(CCCO)cc1F", "OBS VALUE": 4}
{"MOLECULE": "Nc1ccc2ncc(Nc3ccc(Cl)c(Cl)c3)nc2c1", "OBS VALUE": 95}
{"MOLECULE": "CCOC(=O)C(NC(=O)c1ccccc1)[CH](c1ccccc1)[Sn]([c]1ccccc1)([c]1ccccc1)[c]1ccccc1 (stereo unspecified)", "OBS VALUE": 11}
{"MOLECULE": "OC1C#CCSCC#C/C=C\\1 (stereo unspecified)", "OBS VALUE": 55}
{"MOLECULE": "C#CC1=CC(=O)C(OC)=CC1=O", "OBS VALUE": 90}
{"MOLECULE": "CN(C)CCC(=O)c1c[nH]c2ccccc12", "OBS VALUE": -19}
{"MOLECULE": "O=c1[nH]cc(F)c(=O)[nH]1", "OBS VALUE": 34}
{"MOLECULE": "COc1cc(C(C)C(C(=O)O)C(=O)C(=O)O)cc(OC)c1OC (stereo unspecified)", "OBS VALUE": 4}
{"MOLECULE": "CC[C@]1(O)C[C@H]2CN(CCc3c([nH]c4ccccc34)[C@@](C(=O)OC)(c3cc4c(cc3OC)N(C)[C@H]3[C@@](O)(C(=O)OC)[C@H](OC(C)=O)[C@]5(CC)C=CCN6CC[C@]43[C@@H]65)C2)C1", "OBS VALUE": -1}
{"MOLECULE": "O=C(CSS(=O)(=O)O)c1ccccc1", "OBS VALUE": 5}
{"MOLECULE": "Cc1cc(NCCCN(C)C)c2ccc3c(ccc4c(NCCCN(C)C)cc(C)nc43)c2n1", "OBS VALUE": 9}
{"MOLECULE": "O=C1C(Br)=CC(Br)(Br)C=C1Br", "OBS VALUE": 97}
{"MOLECULE": "CCOc1ccc2ccc3cccnc3c2n1", "OBS VALUE": 18}
{"MOLECULE": "O=C(Nn1c(-c2ccccc2)nc2ccccc2c1=O)c1ccc(Cl)cc1", "OBS VALUE": 54}
{"MOLECULE": "O=C(Nc1ccn(C2CC(O)C(COC(c3ccccc3)(c3ccccc3)c3ccccc3)O2)c(=O)n1)c1ccccc1 (stereo unspecified)", "OBS VALUE": 94}
{"MOLECULE": "COC1=C(N=[N+]=[N-])C(=O)c2ncccc2C1=O", "OBS VALUE": 52}
{"MOLECULE": "CCCCCC/C(C)=N/Nc1ccc([N+](=O)[O-])cc1[N+](=O)[O-]", "OBS VALUE": -7}
{"MOLECULE": "CN(C)N1C(=O)SCC(c2ccccc2)(c2ccccc2)C1=O", "OBS VALUE": 6}
{"MOLECULE": "CN(Cc1cccc2ccccc12)Cc1cccc2ccccc12", "OBS VALUE": -2}
{"MOLECULE": "O=S(=O)(CCC[C@H]1[C@@H](CCOCc2ccccc2)C2CCCN1O2)c1ccccc1 (stereo partly specified)", "OBS VALUE": 1}
{"MOLECULE": "Oc1ccc(Br)cc1C=Nc1cccc(C(F)(F)F)c1", "OBS VALUE": 91}
{"MOLECULE": "O=C(O)[C@H]1[C@@H](C2CCCCC2)O[C@@H](C2CCCCC2)O[C@H]1C(F)(F)F", "OBS VALUE": 0}
{"MOLECULE": "c1cc(Nc2ccc3c(c2)OCO3)c2cc(C3CCCCC3)ccc2n1", "OBS VALUE": -6}
{"MOLECULE": "CN(C)c1ccc(C(c2ccc(Cl)cc2)c2ccc(N(C)C)cc2)cc1", "OBS VALUE": 73}
{"MOLECULE": "Cc1cccc[c]1[Sn]([Cl])([S]/C(C#N)=N/N=C/c1ccc(N(C)C)cc1)[c]1ccccc1C", "OBS VALUE": 35}
{"MOLECULE": "Cc1ccccc1C1=C(CC(=O)O)c2ccccc2CC1C (stereo unspecified)", "OBS VALUE": 96}
{"MOLECULE": "CCC1SC(=S)N(c2ccc(Cl)cc2)C1=O (stereo unspecified)", "OBS VALUE": 23}
{"MOLECULE": "Cc1cc(NC(=S)SCc2ccc(Cl)cc2)ccc1Cl", "OBS VALUE": 98}
{"MOLECULE": "CC[C@@]1(OC(=O)CN(C)C)C(=O)OCc2c1cc1n(c2=O)Cc2cc3ccccc3nc2-1", "OBS VALUE": 85}
{"MOLECULE": "Nc1nc(Nc2ccccc2)nc(Nc2ccccc2)n1", "OBS VALUE": -15}
{"MOLECULE": "COc1ccc2c(C)cc(N/N=C/c3sccc3C)nc2c1", "OBS VALUE": 63}
{"MOLECULE": "N=C(N)c1ccc(N=Nc2c(O)ccc3c2[nH]c2ccccc23)cc1", "OBS VALUE": 95}
{"MOLECULE": "O=C(CCCN1CCC2(CC1)OC(=O)N(c1ccccc1)C2=O)c1ccccc1", "OBS VALUE": 52}
